# target or system: Glucocorticoid receptor (Homo sapiens)
# measurement description: Binding affinity to glucocorticoid receptor (unknown origin) by Lanthascreen TR-FRET competition binding assay
measurement name: IC50 (µM)

1: COc1cc(C)c(C)cc1S(=O)(=O)Nc1ccc2c(c1)CCCN2C(=O)C1CC1
2: COc1ccc(C)c(C)c1S(=O)(=O)Nc1ccc2c(c1)CCCN2C(=O)c1ccco1
Looking at 1 and 2 , which one comes out lower in IC50 terms? In your reply, give the label of the chosen option.
2
(2: 1.35 µM, 1: 7.5 µM)

----------
# target or system: Glucocorticoid receptor (Homo sapiens, UniProt P04150)
# Sequence (P04150 whole entry): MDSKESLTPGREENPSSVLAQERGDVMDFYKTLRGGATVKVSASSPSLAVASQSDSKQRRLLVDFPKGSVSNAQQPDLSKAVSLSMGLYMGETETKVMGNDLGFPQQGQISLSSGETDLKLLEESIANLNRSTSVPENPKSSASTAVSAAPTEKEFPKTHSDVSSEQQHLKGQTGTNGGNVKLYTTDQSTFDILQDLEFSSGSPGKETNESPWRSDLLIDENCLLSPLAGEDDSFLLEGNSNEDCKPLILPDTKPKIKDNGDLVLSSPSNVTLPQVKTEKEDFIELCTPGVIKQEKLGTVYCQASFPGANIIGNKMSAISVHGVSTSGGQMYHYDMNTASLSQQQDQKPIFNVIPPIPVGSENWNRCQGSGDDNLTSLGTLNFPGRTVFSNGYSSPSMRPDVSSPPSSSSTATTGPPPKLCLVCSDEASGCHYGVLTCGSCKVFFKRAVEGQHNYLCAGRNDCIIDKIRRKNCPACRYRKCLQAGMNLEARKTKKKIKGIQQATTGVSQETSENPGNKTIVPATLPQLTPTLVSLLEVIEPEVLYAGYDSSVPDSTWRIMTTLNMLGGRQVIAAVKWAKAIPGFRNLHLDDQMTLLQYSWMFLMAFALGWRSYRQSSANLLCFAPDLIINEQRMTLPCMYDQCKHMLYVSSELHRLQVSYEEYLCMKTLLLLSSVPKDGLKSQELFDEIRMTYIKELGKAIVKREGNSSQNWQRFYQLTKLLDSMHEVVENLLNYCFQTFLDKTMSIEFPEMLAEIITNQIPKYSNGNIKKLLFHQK
# measurement description: Modulation of glucocorticoid receptor (unknown origin) transfected in human HeLa cells assessed as transrepression by measuring inhibition of PMA-induced AP-1 signalling incubated for 18 hrs by dual-luciferase reporter based assay
# Assay type: cell-based
measurement name: IC50 (µM)

# count of solved cases: 2
# compound structure string, IC50 [µM]
rows = [
    ("COc1ccc(S(=O)(=O)Nc2ccc3c(c2)CCCN3C(=O)c2ccco2)cc1", 5.62),
    ("O=C(c1ccco1)N1CCCc2cc(N(S(=O)(=O)c3cccs3)S(=O)(=O)c3cccs3)ccc21", 2.86),
]

a: O=C(c1ccco1)N1CCCc2cc(N(S(=O)(=O)c3ccc(-c4ccccc4)cc3)S(=O)(=O)c3ccc(-c4ccccc4)cc3)ccc21
b: O=C(c1ccco1)N1CCCc2cc(N(S(=O)(=O)c3ccc(F)cc3)S(=O)(=O)c3ccc(F)cc3)ccc21
Looking at a and b , which one comes out lower in IC50 terms? In your reply, give the label of the chosen option.
b
(b: 2.25 µM, a: 4.15 µM)

----------
# target or system: UniProt P04150
# measurement description: Modulation of glucocorticoid receptor (unknown origin) transfected in human HeLa cells assessed as transrepression by measuring inhibition of TNF-alpha induced NF-kappaB signalling incubated for 18 hrs by dual-luciferase reporter based assay
# Format: cell-based
pIC50: −log10 of the molar value.
measurement name: pIC50

# compound structure string, pIC50
records = [
    ("COc1cc(C)c(Cl)cc1S(=O)(=O)Nc1ccc2c(c1)CCCN2C(=O)c1ccc(C)cc1", 7.10),
]

P: O=C(c1ccco1)N1CCCc2cc(NS(=O)(=O)c3ccc([N+](=O)[O-])cc3)ccc21
Q: COc1ccc(C)c(C)c1S(=O)(=O)Nc1ccc2c(c1)CCCN2C(=O)c1ccco1
Of P and Q , which one carries the higher reported pIC50? In your reply, give the label of the chosen option.
Q
(Q: 7.00, P: 5.44)

----------
# target or system: Glucocorticoid receptor (Homo sapiens, UniProt P04150)
# Sequence (P04150 whole entry): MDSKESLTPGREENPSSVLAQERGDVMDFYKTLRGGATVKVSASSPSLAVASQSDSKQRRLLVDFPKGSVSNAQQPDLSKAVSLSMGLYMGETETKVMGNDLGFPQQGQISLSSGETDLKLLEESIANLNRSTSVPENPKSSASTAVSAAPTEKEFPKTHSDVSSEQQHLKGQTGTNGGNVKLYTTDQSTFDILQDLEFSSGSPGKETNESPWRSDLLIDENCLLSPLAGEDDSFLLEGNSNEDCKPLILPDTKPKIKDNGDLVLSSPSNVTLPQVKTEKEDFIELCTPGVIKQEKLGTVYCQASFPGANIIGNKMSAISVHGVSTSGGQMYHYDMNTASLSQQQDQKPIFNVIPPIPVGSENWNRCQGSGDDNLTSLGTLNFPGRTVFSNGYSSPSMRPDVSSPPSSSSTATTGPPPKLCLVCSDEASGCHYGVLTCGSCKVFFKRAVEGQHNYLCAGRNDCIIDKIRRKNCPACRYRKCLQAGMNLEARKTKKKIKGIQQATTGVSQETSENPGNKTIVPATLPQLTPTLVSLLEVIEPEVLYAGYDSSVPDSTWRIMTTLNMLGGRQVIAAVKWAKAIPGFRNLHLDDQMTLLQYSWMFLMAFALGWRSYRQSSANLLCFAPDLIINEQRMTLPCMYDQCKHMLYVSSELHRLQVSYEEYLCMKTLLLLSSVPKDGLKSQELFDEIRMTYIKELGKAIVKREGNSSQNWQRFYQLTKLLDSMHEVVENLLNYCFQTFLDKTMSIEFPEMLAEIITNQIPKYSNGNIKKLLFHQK
# measurement description: Modulation of glucocorticoid receptor (unknown origin) transfected in human HeLa cells assessed as transrepression by measuring inhibition of TNF-alpha induced NF-kappaB signalling incubated for 18 hrs by dual-luciferase reporter based assay
# Assay type: cell-based
measurement name: IC50 (nM)

# count of solved cases: 3
# compound structure string, measurement name, quantitative result
records = [
    ("O=C(c1ccco1)N1CCCc2cc(NS(=O)(=O)c3ccc4c(c3)CCCC4)ccc21", "IC50", 320),
    ("O=C(c1ccco1)N1CCCc2cc(N(S(=O)(=O)c3ccccc3)S(=O)(=O)c3ccccc3)ccc21", "IC50", 390),
    ("COc1cc(C)c(C)cc1S(=O)(=O)Nc1ccc2c(c1)CCCN2C(=O)c1ccccc1", "IC50", 890),
]

I: CCCCc1ccc(S(=O)(=O)Nc2ccc3c(c2)CCCN3C(=O)c2ccco2)cc1
II: O=C(c1ccco1)N1CCCc2cc(N(S(=O)(=O)c3ccc4c(c3)CCCC4)S(=O)(=O)c3ccc4c(c3)CCCC4)ccc21
III: CCCCS(=O)(=O)N(c1ccc2c(c1)CCCN2C(=O)c1ccco1)S(=O)(=O)CCCC
Give the ascending ranking of the items by reported IC50. Returns: the labels listed in the requested order.
II, I, III

----------
# target or system: Glucocorticoid receptor (Homo sapiens, UniProt P04150)
# measurement description: Modulation of glucocorticoid receptor (unknown origin) transfected in human HeLa cells assessed as transrepression by measuring inhibition of PMA-induced AP-1 signalling incubated for 18 hrs by dual-luciferase reporter based assay
# Assay type: cell-based
pIC50: −log10 of the molar value.
measurement name: pIC50

# compound structure string, quantitative result
measured = [
    ("COc1cc(C)c(C)cc1S(=O)(=O)Nc1ccc2c(c1)CCCN2C(=O)C1CC1", 6.44),
    ("O=C(c1ccco1)N1CCCc2cc(N(S(=O)(=O)c3ccc4c(c3)CCCC4)S(=O)(=O)c3ccc4c(c3)CCCC4)ccc21", 5.10),
    ("O=C(c1ccco1)N1CCCc2cc(N(S(=O)(=O)c3ccccc3)S(=O)(=O)c3ccccc3)ccc21", 6.21),
    ("COc1ccc(C(=O)N2CCCc3cc(NS(=O)(=O)c4cc(Cl)c(C)cc4OC)ccc32)cc1", 5.85),
    ("COc1cc(C)c(Cl)cc1S(=O)(=O)Nc1ccc2c(c1)CCCN2C(=O)c1ccc(C(F)(F)F)cc1", 5.48),
]

A: O=C(c1ccco1)N1CCCc2cc(N(S(=O)(=O)c3ccc([N+](=O)[O-])cc3)S(=O)(=O)c3ccc([N+](=O)[O-])cc3)ccc21
B: Cc1ccc(S(=O)(=O)N(c2ccc3c(c2)CCCN3C(=O)c2ccco2)S(=O)(=O)c2ccc(C)cc2)cc1
Of A and B , which one carries the higher reported pIC50? In your reply, give the label of the chosen option.
B
(B: 6.48, A: 5.32)

a: O=C(c1ccco1)N1CCCc2cc(N(S(=O)(=O)c3ccc(Cl)cc3)S(=O)(=O)c3ccc(Cl)cc3)ccc21
b: CC(C)(C)c1ccc(S(=O)(=O)Nc2ccc3c(c2)CCCN3C(=O)c2ccco2)cc1
Of a and b , which one carries the higher reported pIC50? In your reply, give the label of the chosen option.
b
(b: 5.94, a: 5.40)

Just for reference, ChEMBL document CHEMBL5236596 is where these values come from.
